- Tested on: Saccharomyces cerevisiae;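 note: PSI is a weighted mean of sequencing reads over stability bins, variants kept only with over 10 reads, mCherry proximal and sfGFP distal, peptide attached via GGGS linker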
- Protocol Text: protein stability index of tFT-peptide fusion (C-terminal peptide) (PSI (0-1 scale)); higher = more stable (slower turnover)
- Measurement Context: genetic background: wild type; temperature: 30 C
Please provide measured protein stability index for the entries that follow.
Reply: number alone, nothing else.

What the record says about LWGVGGADARLQ : protein stability index is 0.775

What the record says about SPCLTRSALPSP : protein stability index is 0.687

What the record says about CSRDWRCNVRPV : protein stability index is 0.715

What the record says about WFSVIMLCYILP : protein stability index is 0.253

What the record says about RVDRVFGGFGGS : protein stability index is 0.724

What the record says about FGCCLYFCFWGL : protein stability index is 0.433

What the record says about ISEGNNQNLSQT : protein stability index is 0.689

What the record says about SVLWLSSLRVPL : protein stability index is 0.707

What the record says about HSSPPPAPPPLP : protein stability index is 0.697

What the record says about FTCVVRRGDIQL : protein stability index is 0.675

What the record says about LSFSFSPTSPPP : protein stability index is 0.739

What the record says about ETGTRELIRQWV : protein stability index is 0.718

What the record says about KTECMAIEKTLV : protein stability index is 0.686

What the record says about GGCFGGVGGGSG : protein stability index is 0.707

What the record says about LPLPHPQPTPYP : protein stability index is 0.756

What the record says about NLETDRRRTYGM : protein stability index is 0.697

What the record says about TPPPSLPPPPPP : protein stability index is 0.627

What the record says about NEIENYKDIIEK : protein stability index is 0.684

What the record says about KKENKERNNEYE : protein stability index is 0.708

What the record says about KKKKKKKMTNLK : protein stability index is 0.809

What the record says about VTGPLSSDSSFT : protein stability index is 0.672

What the record says about CERHWADRNTSV : protein stability index is 0.745

What the record says about PPPRLPLLSCSQ : protein stability index is 0.408

What the record says about NPYLLCKFSTLL : protein stability index is 0.675

What the record says about VYGSLPVVVCRI : protein stability index is 0.525

What the record says about RKINQKNNEKNS : protein stability index is 0.648

What the record says about IRGIKSRKFTSV : protein stability index is 0.753

What the record says about PLGGLTLNIIEC : protein stability index is 0.701

What the record says about LPRHKWLPSGLG : protein stability index is 0.686

What the record says about FPPPLCLHRPIP : protein stability index is 0.786

What the record says about YYRARRFRQSRR : protein stability index is 0.709

What the record says about GPEAVARIFDDE : protein stability index is 0.708

What the record says about RLWPPGGEFRLV : protein stability index is 0.719

What the record says about GMCWTEGNTAVL : protein stability index is 0.697

What the record says about EREKERNKNGKY : protein stability index is 0.671

What the record says about LASFCSVCIFIS : protein stability index is 0.163

What the record says about AGLTGSREGWRG : protein stability index is 0.638

What the record says about PRPKNQMAIYRE : protein stability index is 0.708

What the record says about KLCGIYMVGGKK : protein stability index is 0.651

What the record says about CNIYVLIIIKKY : protein stability index is 0.266

What the record says about AVCSLLVYAPDR : protein stability index is 0.652

What the record says about SPPLPPTPPVTT : protein stability index is 0.705

What the record says about PTPRGTPCPDTM : protein stability index is 0.66

What the record says about LHLLFLPFVVCL : protein stability index is 0.108

What the record says about WLSDSCRMNSEV : protein stability index is 0.666

What the record says about GQCRTELVGLWE : protein stability index is 0.664

What the record says about FGRAGAGERRGA : protein stability index is 0.722

What the record says about WKPGSPGCQAFR : protein stability index is 0.603

What the record says about RYYNDKKEKNIL : protein stability index is 0.706

What the record says about RVGYVPNFFCVL : protein stability index is 0.625

What the record says about ASPAIDSETSEY : protein stability index is 0.686

What the record says about VSVGGVWGQCVA : protein stability index is 0.662

What the record says about EWRPYKRNKQSS : protein stability index is 0.353

What the record says about QSPMTTGASERH : protein stability index is 0.623

What the record says about QGIKKKKEKERR : protein stability index is 0.768

What the record says about FFVRCTEWLGED : protein stability index is 0.616

What the record says about QNQILNKKVIFK : protein stability index is 0.681

What the record says about TAPPPSQTPPRT : protein stability index is 0.684

What the record says about ELQVSGNTIIVV : protein stability index is 0.529

What the record says about LRQVGTASSLRR : protein stability index is 0.717

What the record says about VFATRALSQRLI : protein stability index is 0.526

What the record says about IVTLPTNPYTPV : protein stability index is 0.717

What the record says about APPRSPRSLPPL : protein stability index is 0.658

What the record says about HREGTTAFFKTH : protein stability index is 0.536

What the record says about CGSVEVVVVRGS : protein stability index is 0.587

What the record says about PLNQKPPDWPTQ : protein stability index is 0.734

What the record says about MIFCSPPPLFFP : protein stability index is 0.7

What the record says about EGRDDIVEKKRR : protein stability index is 0.66

What the record says about SLSSRSVSLFKF : protein stability index is 0.806

What the record says about YPRLVGGCWFRL : protein stability index is 0.403

What the record says about FVGSFYWSGFYV : protein stability index is 0.702

What the record says about FCLFFFPSLFFF : protein stability index is 0.371

What the record says about DVQISSGRGVCS : protein stability index is 0.672

What the record says about GGGGRGGVVRSG : protein stability index is 0.634

What the record says about PPPPPTPHTPLL : protein stability index is 0.672

What the record says about RAKRMVGQTIQE : protein stability index is 0.765

What the record says about HVAYAQSRLFYA : protein stability index is 0.638

What the record says about MAVVSDDRDINC : protein stability index is 0.681

What the record says about CYFLFFLSYSLE : protein stability index is 0.297

What the record says about FVLSLGQLVFIF : protein stability index is 0.445

What the record says about VGPGRRGWEGAP : protein stability index is 0.663

What the record says about PRGLGYHGALVL : protein stability index is 0.571
